assay: yeast display, Sf9 membrane polyspecificity reagent, FACS + sequencing; frameworks hold sequencing errors
Property Name: polyreactivity (PSR sort gate)

Construct Sequence	Property Name	Result
QVQLVESGGGLVQAGGTLRLSCAASGITFEHYAMGWYRQAPGKERELVAAINRSGDNTYYADSVKGRFTISRYNAKNTFYLQMNSLKPEDTAVYYCNTVELYWRGYDYWGQGTQVTVSS	polyreactivity (PSR sort gate)	high polyreactivity
QVQLVESGGGLVQAGGSLRLSCAASGLTFYYYAMGWYRQAPGKERELVAAITWSGASTYYADSVKGRFTISRDNAKNTVYLQMNSLKPEDTAVYYCNARVWGGVEFGYWGQGTQVTVSS	polyreactivity (PSR sort gate)	high polyreactivity

----------
assay: yeast display, Sf9 membrane polyspecificity reagent, FACS + sequencing; frameworks hold sequencing errors

Construct Sequence	polyreactivity (PSR sort gate)
QEQLQESGGGLVQAGGSQSLSCAASGIIFDWFFMGWYRQAPGREREFVAAITYGATTNYADSVKGRFTISRDNGKITVYLQMNSLKPEDCAVYYCAAASPLYWVDDFESGWRYYYWGQGTQVTVSS	low polyreactivity
QVQLVESGGGLVQAGGSLRLSCAASGFIFPWYAMGWYRQAPGKERELVAAISESGGGTYYADSVKGRFTISRDYAKNTVYLQMNSLKPEDTAVYYCNKAPRYPYGGYDYWGQGTQVTVSS	low polyreactivity

----------
assay: yeast display, Sf9 membrane polyspecificity reagent, FACS + sequencing; frameworks hold sequencing errors
Property Name: polyreactivity (PSR sort gate)

Sample answers from the record:
Construct Sequence	polyreactivity (PSR sort gate)
QVQIVESRVGLVQAGGSLRLSCAASGLTFYYYAMGWYRQAPGKERELVAAIDGSGGITYYEDSLKARFTISRDNEKNTVYLQMNSLKPEDTAVYYCAAERVVGDAYDYWGQGTQVTVSS	high polyreactivity
QVQLVESGGGLVQAGGSLRLSCAASGSIFSHYVMGWYRQAPGKERELVAAISRSGGTTYYADSVKGRFTISRDNAKNTVYLQMNSLKPEDTAVYYCNVRGEPYPYYDGYEYDYWGQGTQVTVSS	low polyreactivity
QVQLVESGGGLVQAGGSLRLSCAASGSIFNWNTMGWYRQAPGKERELVAAITYDGGTTYYADSVKGRFTISRDNAKNTVYLQMNSLKPEDTAVYYCAAEFLYKYGRYDYWGQGTQVTVSS	high polyreactivity
QVQLVESGGGLVQAGGSLRLSCAASGRTFPYNAMGWYRQAPGKERELVAAITQSAGRTYYADSVKGRFTISRDTAKYTVYFQMNSLKPEDTAVYYCNTVTVAYGYTRLYAQYYYWGQGTQVTVSS	high polyreactivity
QVQLVDSGGGLVQAGGSLRLSCAASGSIFSKYAMGGYRQAPGKERELVAAISGSGVSTYYADSVKGRFTISRDNAKNTVFLQMNSLKTEDTAVYYCNARGSFHQPRYGYWGQGTQVTVSS	high polyreactivity
QVQLVESGGGLVQAGGSLRLSCAASGRIFANAMGWYRQAPGKERELVAAISTSGGRTYYADSVKGRFTISRDNAKNTVYLQMNSLKPEDTAVYYCAARPHTPPVTSGYNHWGQGTQVTVSS	high polyreactivity
QVQLVESGGGLVQAGGRLRLSCAASGRIFVAYVMGWYRQAPGKERELVAAITRGVRTYYADSVKGRFTISRDNAKNTVYLQMNSLKPEDTAVYYCAARGISAFSQDYEYYYWGQGTQVTVSS	high polyreactivity
QVQLVESGGGLVQAGGSLRLSCAASGGTFSCYAMGWYRQAPGKERELVAAITRRGGRTYYADSVKGRFTISRDNAKNTVYLQMNSLKPEDTAVYYCNTDYKFDYVGFSTWVVRYDYWGQGTQVTVSS	low polyreactivity
QVQLVESGGGLVQAGGSLRLSCAASGFIFVYYAMGWYRQAPGKERELVAAITSDVNTYYADSVKGRFSISRDNAKNTVYLHMNSLKPEDTAVDYCNADADDYRDYQDYDYWGQGSQVTVSS	low polyreactivity
QVQLVESGGGLVLAGGSLRLSCAASGFIFSPYVRGWYRQAPGKDRELVAAISSIGGSTYYADSVKGRFTISRDNAKNTVFLQMNSLKPEDTAVYYCADSVYYYASRYDYWGQVTQVTVSS	low polyreactivity

response.value for QVQLVESGGGLVQAGGSLRLSCAASGSIFYRYAMGWYRQAPGKERELVAGITRGGSTNYADSVKGRFTISRDNAKNTVYLQMNSLKPEDTAVYYCAARSYVYVHYYYWGQGTQVTVSS (field: polyreactivity (PSR sort gate)) = high polyreactivity

response.value for QVQLVESGGGLVQAGGSLRLSCAASGSILPDYAMGWYRQAPGKERELVASITNSGDSTYYADSVKGRFTISRDNAKNPVYLQMNSLKPEDTAVYYCNADSVRYDYSANDYEYWGQGSQVTVSS (field: polyreactivity (PSR sort gate)) = high polyreactivity

response.value for QVQLVESGGGLVQAGGSLRLSCAASGNIFYVYVMGWYRQAPGKERELVASITSGASTYYADSVKGRFTISRDNAKNTVYFQMNSLKPEDTAVYYCAAEALGGAGDYSTLYIYDYWGQGTQVTVSS (field: polyreactivity (PSR sort gate)) = low polyreactivity

response.value for QVPLVESGRGLVQAGGSLRLSCAASGFIFKYYAMGWYRQAPGKEGELVASISSSGSSTYYADSVKGRFTISRDNAKNTVYLQMNSLKAEDTAVNYCNTVTYGPSAYDYLGQGTQVTVSS (field: polyreactivity (PSR sort gate)) = low polyreactivity

response.value for QVQLVESGGGLVQAGGSLRLSCAASGRILYSYAMGWYRQAPGKERELVASISWSGGSTYYADSVKGRFTISRDNAKNTVYLQMNSLKPEDTAVYYCAKKYYSVYQTDVSGRYDYWGQGTQVTVSS (field: polyreactivity (PSR sort gate)) = low polyreactivity

response.value for QVQLVESGGGLVQAGGSLRLSCDASGSSFDYYARGWYRQAPGTERELVAAITSTGRTYYADSVKGRFTISRDNAKNTVYLQMNSLKPDDTAVYYCAADQPWGPLFDYWGQGTQVTVSS (field: polyreactivity (PSR sort gate)) = low polyreactivity

response.value for QVQLVESGGGLVQAGGSLRLSCAASGLNFSYYVMGWYRQAPGKERELVATITYSGGSTYYADSVKGRFTISRDNAKNTVYLQMNSLKPEDTAVYYFNADTGYVYSEYEYWGQGTQVTVSS (field: polyreactivity (PSR sort gate)) = high polyreactivity

response.value for QVQLVESGGGLVQAGGSLRLSCAASGRIFDNYAMGWYRQAPGKERELVAAITSTGRTNYADSVKGRFTISRDNAKYTVYLQMYSLKPEDTAVYYCNVDYQYARSGHANAYEYYYWGQGTQVTVSS (field: polyreactivity (PSR sort gate)) = low polyreactivity

response.value for QVQLVESGGRLVQAGGTLRLSCAASGFIFTPYAMGWYRQAPGKERELVAAITWRGARTYYADSVKGRFTISRDNANNTVYLQMNSLKPEDTAVYYCATTFTGYNKEFGYWGQGTQVTVSS (field: polyreactivity (PSR sort gate)) = high polyreactivity

response.value for QVQLVESGGGLVQAGGSLRLSCAASGRTFDYNAMGWYRQAPGKERELFAAISQSGGRTYYADSVKGRFTISRDNAKNTVYLQMYSLKPVDTAVYYCAAEAYGNRDYWGQGTQVTVSS (field: polyreactivity (PSR sort gate)) = low polyreactivity

response.value for QVQLVESGGGLVQAGGSLRLSCAASGRIFDSYAMGWYRQAPGKERELVATISWDSATTYYADSVKGRFTISRDNAKNTVYLQMNSLKPEDTAVYYCNTRDLYGYPQVTGYDYWGQGTQVTVSS (field: polyreactivity (PSR sort gate)) = low polyreactivity
